Record: compiled Ki on D(3) dopamine receptor (Homo sapiens) from multiple reports.
outcome_measure: Ki (nM)

> print(dat)
                                   compound  outcome.measure  unit.abbreviation  bound.type  observed.result
1  COCCc1cc(N2CCN(CC[C@H]3CC[C@H](NC(=O)[C@H]4CC[C@H](OC)CC4)CC3)CC2)nc(C(C)(C)C)n1               Ki                 nM           <               50
2  COCCc1cc(N2CCN(CC[C@H]3CC[C@H](NC(C)=O)CC3)C[C@H]2C)nc(C(C)(C)C)n1               Ki                 nM           <               10
3  CCC(=O)c1ccc2c(c1)CN(CCCSc1nnc(-c3cccn3C)n1C)CC2               Ki                 nM           =              4.4
4  O=C(CC1CC1)N[C@H]1CC[C@H](CCN2CCN(c3noc4ccncc34)CC2)CC1               Ki                 nM           =             15.4
5  CCCNC1CCc2cc(NS(=O)(=O)c3ccc(C(C)C)cc3)cnc2C1 (stereo not shown)               Ki                 nM           =             11.3
6  Cc1ccn(CCCCN2CCN(Cc3ccc(Cl)cc3Cl)CC2)c(=O)n1               Ki                 nM           =               17
7  COCc1cc(N2CCN(CC[C@H]3CC[C@H](NC(=O)[C@H]4CC[C@H](O)CC4)CC3)CC2)nc(C(C)(C)C)n1               Ki                 nM           <               10
8  CC(C)(C)c1nc(N2CCN(CCCCNC(=O)N3CCC(C#N)(c4ccccc4)CC3)CC2)cc(C(F)(F)F)n1               Ki                 nM           =               16
